targetOrTestSystem: MpPR10.5 protein (Marchantia polymorpha, UniProt A0A2R6WRE7)
Sequence (A0A2R6WRE7 1-149): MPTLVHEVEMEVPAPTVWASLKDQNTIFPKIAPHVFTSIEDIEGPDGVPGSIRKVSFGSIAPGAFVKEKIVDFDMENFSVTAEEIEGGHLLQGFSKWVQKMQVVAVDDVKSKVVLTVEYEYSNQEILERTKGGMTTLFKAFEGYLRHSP
experimentalDetails: Intrinsic tryptophan fluorescence binding assay
quantity: affinity for MpPR10.5 (in words)

molecule	quantity	observedValue
O=C(/C=C/c1ccc(O)c(O)c1)c1ccc(O)cc1O [Butein]	affinity for MpPR10.5 (in words)	high affinity
O=C(CCc1ccc(O)cc1)c1c(O)cc(O)cc1O [Phloretin]	affinity for MpPR10.5 (in words)	high affinity
O=C(/C=C/c1ccc(O)cc1)c1ccc(O)cc1O [Isoliquiritigenin]	affinity for MpPR10.5 (in words)	high affinity

The measured values listed here are drawn from paper PMC12138178.
